Test system: HCC1569
protocolNotes: cell number relative to DMSO (% of DMSO); higher = more cells (less growth inhibition / toxicity)
measurementParameters: concentration: 10 µM; 24 h
Would you mind telling me the reported cell number of each entry?
Give the value as a plain number.

Quick one: cell number for CC1=NN=C(c2ccc(N)cc2)c2cc3c(cc2C1)OCO3.Cl ?
97.4

// query: CC1=CC2c3cccc4[nH]cc(c34)CC2N(C)C1 (centres undefined)
100

// query: Cc1ccc(S(=O)(=O)NC(CCCCN)C(=O)CCl)cc1.Cl [Na-p-Tosyl-L-lysine chloromethyl ketone hydrochloride]
98.8

// query: CN1CC(C(=O)NC2(C)OC3(O)C4CCCN4C(=O)C(Cc4ccccc4)N3C2=O)C=C2c3cccc4[nH]cc(c34)CC21 (centres undefined)
97.8

// query: NC(=NN=Cc1ccc(-c2cccc([N+](=O)[O-])c2)o1)N[N+](=O)[O-]
102

// query: CC(C)CC1C(=O)N2CCCC2C2(O)OC(NC(=O)C3C=C4c5cccc6[nH]c(Br)c(c56)CC4N(C)C3)(C(C)C)C(=O)N12.CS(=O)(=O)O (centres undefined) [Bromocriptine mesylate]
99.5

// query: C=C(C)C1CNC(C(=O)O)C1CC(=O)O (centres undefined)
103

// query: Cl.Cl.Cn1cnc(CCN)c1 [1-Methylhistamine dihydrochloride]
98.1

// query: C[N+]1(C)C2CCC1CC(OC(=O)C(CO)c1ccccc1)C2.[Br-] (centres undefined) [Atropine methyl bromide]
102

// query: CN1CC(CO)C=C2c3cccc4[nH]cc(c34)CC21 (centres undefined)
100

// query: CC(C)CC(NP(=O)([O-])OC1OC(C)C(O)C(O)C1O)C(=O)NC(Cc1c[nH]c2ccccc12)C(=O)[O-].[Na+].[Na+] (centres undefined) [Phosphoramidon disodium]
99.6

// query: Nc1ncnc2c1ccn2C1OC(CO)C(O)C1O (centres undefined)
42.7

// query: CCCCc1ccc(C(=O)O)nc1
105

// query: O=C(O)CC[N+](=O)[O-]
103

// query: NC(CP(=O)(O)O)C(=O)O (racemic)
105

// query: CN(C)C(=O)Oc1cc(OC(=O)N(C)C)cc(C(O)CNC(C)(C)C)c1 (centres undefined)
101

// query: COc1cccc2c1cc([N+](=O)[O-])c1c(C(=O)O)cc3c(c12)OCO3
102

// query: COc1ccc2c(c1OC)C(=O)OC2C1c2cc3c(cc2CCN1C)OCO3 (single isomer, unassigned; (+)) [(+)-Hydrastine]
98.7

// query: O=C1CSC(c2ccccc2Cl)c2cc(Cl)ccc2N1 (centres undefined)
103

// query: CC1CCCC=CC2CC(O)CC2C(O)C=CC(=O)O1 (centres undefined)
68.2

// query: O=P1(NCCCl)OCCCN1CCCl (centres undefined) [Ifosfamide]
103

// query: CCCC[N+]1(C)C2CC(OC(=O)C(CO)c3ccccc3)CC1C1OC12.[Br-] (centres undefined) [Scopolamine N-butylbromide]
99.1

// query: CS(=O)CCCCN=C=S (centres undefined)
99.7

// query: CC1=C(O)C(=O)C2OC2C1=O (single isomer, unassigned; (-))
80

// query: C#CCN(C)C(C)Cc1ccccc1.Cl [(R)-(-)-Deprenyl.HCl]
104

// query: Cl.c1ccc2c(N3CCNCC3)cccc2c1 [1-(1-Naphthyl)piperazine hydrochloride]
99.6

// query: CS(=O)(=O)O.Cc1c(C(=O)c2cccc3ccccc23)c2cccc3c2n1C(CN1CCOCC1)CO3 (stereo not drawn) [( R)-(+)-WIN 55,212-2 mesylate]
72.8

// query: C=CCc1cc(OC)c2c(c1)OCO2
104

// query: CCCCCC=CCC=CCC=CCC=CCCCC(=O)NC(C)CO [(R)-Methandamide]
107

* * *

Test system: TDF
protocolNotes: H1.0 immunofluorescence intensity relative to DMSO (% of DMSO); higher = stronger H1.0 induction, active = 120 or more
measurementParameters: concentration: 10 µM; 24 h
experimentalReadout: H1.0 immunofluorescence intensity
Give the value as a plain number.

Quick one: H1.0 immunofluorescence intensity for CC(N)Cc1c[nH]c2ccc(O)cc12.O=C(O)C=CC(=O)O (stereo not drawn) [alpha-Methyl-5-hydroxytryptamine maleate] ?
90.3

// query: C=CCN1CCC23c4c5ccc(O)c4OC2C(=O)CCC3(O)C1C5.Cl (configuration not stated) [Naloxone hydrochloride]
97.1

// query: NNC(=O)c1ccc(O)cc1 [4-Hydroxybenzhydrazide]
97.5

// query: CCCn1c(=O)c2[nH]c(C3CCCC3)nc2n(CCCOC(=O)c2ccc(S(=O)(=O)F)cc2)c1=O
90.1

// query: CC(C)NCC(O)c1ccc(N)c(C#N)c1 (configuration not stated) [Cimaterol]
87.7

// query: Cl.O=c1[nH]oc2c1CCNC2 [THIP hydrochloride]
94

// query: C[N+](C)(C)CC(=O)O.[Cl-] [Betaine hydrochloride]
89.4

// query: CCCN1CCCC2Cc3[nH]ncc3CC21.Cl (single isomer, unassigned; (-)) [(-)-Quinpirole hydrochloride]
87.5

// query: COc1ccc(C(=O)OC2CCC3(C)C4CCC5C6(O)CC(O)C7(O)C(CN8CC(C)CCC8C7(C)O)C6(O)CC53OC24O)cc1OC (configuration not stated) [Veratridine]
96.7

// query: Br.CC(Cc1ccc(O)cc1)NCC(O)c1cc(O)cc(O)c1 (configuration not stated) [Fenoterol hydrobromide]
88.3

// query: CCOC(=O)c1ncn2c1C1CCCN1C(=O)c1cc(OC)ccc1-2 (configuration not stated)
88.2

// query: NC(=O)c1cc(N2CC2)c([N+](=O)[O-])cc1[N+](=O)[O-]
89.4

// query: C[N+]1(C)C2CCC1CC(OC(=O)C(CO)c1ccccc1)C2.O=[N+]([O-])[O-] (configuration not stated) [Atropine methyl nitrate]
94.9

// query: CC[NH+](CC)CC.Nc1ncnc2c1ncn2C1OC2COP([O-])(=S)OC2C1O (configuration not stated) [Rp-cAMPS triethylamine]
86

// query: COc1cc2c(c(OC)c1OC)-c1ccc(SC)c(=O)cc1C(NC(C)=O)CC2 (configuration not stated) [Thiocolchicine]
187

// query: CC1=C(O)C(=O)C2OC2C1=O (single isomer, unassigned; (-))
96.7

// query: CCCN1CCCC(c2cccc(C#N)c2)C1.Cl (stereo not drawn) [S(-)-DS 121 hydrochloride]
92.4

// query: NCCc1c[nH]c2ccc(C(N)=O)cc12.O=C(O)C=CC(=O)O [5-Carboxamidotryptamine maleate]
91.3

// query: CC(C)C1(NC(=O)C2C=C3c4cccc5[nH]cc(c45)CC3N(C)C2)OC2(O)C3CCCN3C(=O)C(Cc3ccccc3)N2C1=O (configuration not stated) [Ergocristine]
92.8

// query: NC(N)=Nc1ccc2[nH]c3c(c2c1)CC1(O)C2Cc4ccc(O)c5c4C1(CCN2CC1CC1)C3O5.O=C(O)C(F)(F)F.O=C(O)C(F)(F)F (configuration not stated) [Guanidinyl-naltrindole di-trifluoroacetate]
104

// query: CCCCCC=CCC=CCCCCCCCC(=O)NCCO [Anandamide (18:2,n-6)]
99.1

// query: Br.CCC1CN2CCc3cc(OC)c(OC)cc3C2CC1CC1NCCc2cc(O)c(OC)cc21 (configuration not stated)
135

* * *

System: TDF
protocolNotes: cell number relative to DMSO (% of DMSO); higher = more cells (less growth inhibition / toxicity)
measurementParameters: concentration: 10 µM; 24 h
Would you mind telling me the reported cell number of each entry?
Give the value as a plain number.

Quick one: cell number for CS(=O)CCCCN=C=S (stereo not drawn) [1-isothiocyanato-4-(methylsulfinyl)butane] ?
94.9

// query: CC12CCC3C(CCC4=C(O)C(=O)CCC43C)C1CCC2=O (stereo not drawn) [4-Androsten-4-ol-3,17-dione]
96.7

// query: CN1CCc2cccc(Cl)c2CC1.Cl
98.7

// query: CCC1C=CC=CCC(C)C(O)C(C)(O)C(=O)C(C)C(O)C(C)C(=O)C(C)C(O)C(C)C=CC(=O)OC2C(C)C(CC1)OC1(CCC(C)C(CC(C)O)O1)C2C (stereo not drawn) [Oligomycin A]
87

// query: CC1CC=CC2C3OC3(C)C(C)C3C(Cc4ccccc4)NC(=O)C23OC(=O)OC=CC(C)(O)C1=O (stereo not drawn) [Cytochalasin E]
32.4

// query: CCC(C)C=C(C)C=CC1=CC2=C(Cl)C(=O)C(C)(OC(C)=O)C(=O)C2=CO1 (stereo not drawn) [Sclerotiorin]
96.1

// query: Cl.O=c1[nH]oc2c1CCNC2 [THIP hydrochloride]
112

// query: N#CC(OC1OC(COC2OC(CO)C(O)C(O)C2O)C(O)C(O)C1O)c1ccccc1 (stereo not drawn) [Amygdalin]
91.7

// query: COc1ccc2c(c1OC)C(=O)OC2C1c2cc3c(cc2CCN1C)OCO3 (single isomer, unassigned; (+)) [(+)-Hydrastine]
104

// query: CCN(CCCl)Cc1ccccc1Br.Cl [DSP-4 hydrochloride]
103

// query: CCCCCC=CCC=CCCCCCCCC(=O)NCCO [Anandamide (18:2,n-6)]
108

// query: [Cl-].c1ccc2c(c1)[I+]c1ccccc1-2 [Diphenyleneiodonium chloride]
34

// query: Cc1cc(C2CCCN2C)on1 (stereo not drawn)
102

// query: Cc1cc(C(=O)CN2CCCC2)c(C)n1-c1ccc(F)cc1
102

// query: COC1C(O)C(C)OC(OC2CCC3(C=O)C(CCC4C3CCC3(C)C(C5=CC(=O)OC5)CCC43O)C2)C1O (stereo not drawn) [Peruvoside]
44

// query: CCC(C(=O)O)C1OC(C(C)C(O)C(C)C(=O)C(CC)C2OC3(C=CC(O)C4(CCC(C)(C5CCC(O)(CC)C(C)O5)O4)O3)C(C)CC2C)C(C)CC1C (stereo not drawn) [Narasin]
84.4

// query: Cl.FC(F)(F)c1cccc(C2=CCN(CCc3ccc4ccccc4c3)CC2)c1
96.7

// query: C/C(Nc1ccccc1)=C1\C(=O)NC(Cc2ccccc2)C1=O (stereo not drawn) [(3E)-3-(1-anilinoethylidene)-5-benzyl-2,4-pyrrolidinedione]
7.27

// query: Cl.Cl.Clc1ccc(N2CC3CCC(C2)N3)nn1
110

// query: COc1cccc2c1cc([N+](=O)[O-])c1c(C(=O)O)cc3c(c12)OCO3 [Aristolochic acid A]
110

// query: Br.CCCN1CCc2cc(O)cc3c2C1Cc1ccc(O)c(O)c1-3 (stereo not drawn) [R(-)-2,10,11-Trihydroxy-N-propylnoraporphine hydrobromide]
110

// query: COc1cc2c(c(OC)c1OC)-c1ccc(SC)c(=O)cc1C(NC(C)=O)CC2 (stereo not drawn) [Thiocolchicine]
10.7

// query: CCCCCCCCCCCCCCCCOCC(O)COP(=O)([O-])OCC[N+](C)(C)C (stereo not drawn)
105
